Data credit: patent US10829473B2

- targetOrTestSystem: F508delCFTR (Homo sapiens, UniProt P13569, DEL508-508)
- Construct: expressed in transfected cells; host or cells: CFBE41o- human lung derived epithelial cells (CFBE41o-F508delCFTR-HRP), doxycycline-inducible
- Sequence (P13569 with tags, fused parts or gaps DEL508-508): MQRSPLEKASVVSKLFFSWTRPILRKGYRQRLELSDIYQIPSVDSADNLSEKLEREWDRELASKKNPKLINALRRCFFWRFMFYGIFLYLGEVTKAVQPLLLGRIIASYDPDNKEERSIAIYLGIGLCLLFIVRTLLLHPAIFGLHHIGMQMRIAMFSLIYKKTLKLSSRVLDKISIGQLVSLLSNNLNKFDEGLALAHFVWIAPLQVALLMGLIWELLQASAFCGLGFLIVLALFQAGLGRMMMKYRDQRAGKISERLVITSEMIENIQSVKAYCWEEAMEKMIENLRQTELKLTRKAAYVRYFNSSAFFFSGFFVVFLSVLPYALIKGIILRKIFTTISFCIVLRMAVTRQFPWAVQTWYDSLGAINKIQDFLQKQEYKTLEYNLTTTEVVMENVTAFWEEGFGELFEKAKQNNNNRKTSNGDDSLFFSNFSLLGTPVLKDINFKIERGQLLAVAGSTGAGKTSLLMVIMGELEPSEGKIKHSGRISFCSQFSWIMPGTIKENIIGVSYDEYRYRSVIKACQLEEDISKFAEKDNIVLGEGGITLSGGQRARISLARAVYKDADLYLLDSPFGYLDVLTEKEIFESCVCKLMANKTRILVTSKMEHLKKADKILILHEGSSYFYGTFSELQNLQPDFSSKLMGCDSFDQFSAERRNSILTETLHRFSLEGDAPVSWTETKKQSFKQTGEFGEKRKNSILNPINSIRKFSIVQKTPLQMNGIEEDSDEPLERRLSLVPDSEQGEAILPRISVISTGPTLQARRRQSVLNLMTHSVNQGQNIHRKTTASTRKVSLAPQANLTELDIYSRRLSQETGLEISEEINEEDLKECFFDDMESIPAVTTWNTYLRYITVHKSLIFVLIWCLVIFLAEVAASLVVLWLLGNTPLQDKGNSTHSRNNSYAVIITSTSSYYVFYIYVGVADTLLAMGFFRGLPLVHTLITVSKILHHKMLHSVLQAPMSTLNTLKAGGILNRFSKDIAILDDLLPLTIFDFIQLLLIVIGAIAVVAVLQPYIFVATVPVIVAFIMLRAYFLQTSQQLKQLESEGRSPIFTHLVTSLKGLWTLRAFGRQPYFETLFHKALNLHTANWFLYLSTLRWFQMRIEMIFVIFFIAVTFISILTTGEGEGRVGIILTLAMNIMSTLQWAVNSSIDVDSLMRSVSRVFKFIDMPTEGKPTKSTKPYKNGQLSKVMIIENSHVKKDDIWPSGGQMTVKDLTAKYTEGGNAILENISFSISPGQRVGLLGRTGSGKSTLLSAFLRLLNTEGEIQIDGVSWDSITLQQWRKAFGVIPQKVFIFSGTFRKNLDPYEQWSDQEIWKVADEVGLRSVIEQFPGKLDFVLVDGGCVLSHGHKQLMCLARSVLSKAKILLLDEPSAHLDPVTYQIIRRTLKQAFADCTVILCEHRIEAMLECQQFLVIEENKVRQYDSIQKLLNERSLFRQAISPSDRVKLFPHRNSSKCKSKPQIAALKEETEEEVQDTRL
- testDetails: Cell Surface Expression-Horse Radish Peroxidase (CSE-HRP) Assay
- Assay type: cell-based
- experimentalSetup: with co-corrector; maximum at any tested concentration
- Experimental: A cellular assay for measuring the F508delCFTR cell surface expression after correction with test compounds either without or with a co-corrector (2 μM of 3-[(2R,4R)-4-({[1-(2,2-difluoro-1,3-benzodioxol-5-yl)cyclopropyl]carbonyl}amino)-7-methoxy-3,4-dihydro-2H-chromen-2-yl]benzoic acid), was developed in human lung derived epithelial cell line (CFBE4lo−) (Veit G et al, (2012) Mol Biol Cell. 23(21): 4188-4202). […] The raw counts from the experiment were analyzed using Accelrys® Assay Explorer v3.3. […]
measurementType: Maximum % activity (with co-corrector)

Use the examples below as a reference point.
[
  {
    "compoundStructure": "COc1ccc(OC(F)F)cc1C1(C(=O)NS(=O)(=O)c2cccc3ncccc23)CC1",
    "Maximum % activity (with co-corrector)": "+++ (≥350)"
  },
  {
    "compoundStructure": "COc1cc(OC(C)C)c(C2(C(=O)NS(=O)(=O)c3cccc4ncccc34)CC2)cn1",
    "Maximum % activity (with co-corrector)": "+++ (≥350)"
  },
  {
    "compoundStructure": "COc1ccc(C)c(OC)c1C1(C(=O)NS(=O)(=O)c2cccc3[nH]ccc23)CC1",
    "Maximum % activity (with co-corrector)": "+++ (≥350)"
  },
  {
    "compoundStructure": "CCn1nc(C)cc1C1(C(=O)NS(=O)(=O)c2cccc3ccccc23)CC1",
    "Maximum % activity (with co-corrector)": "+++ (≥350)"
  },
  {
    "compoundStructure": "COc1ncc(C(F)(F)F)cc1C1(C(=O)NS(=O)(=O)c2cccn3nccc23)CC1",
    "Maximum % activity (with co-corrector)": "+++ (≥350)"
  },
  {
    "compoundStructure": "Cc1ccc(C)c(C2(C(=O)NS(=O)(=O)c3cccc4[nH]ncc34)CC2)c1",
    "Maximum % activity (with co-corrector)": "+++ (≥350)"
  },
  {
    "compoundStructure": "COc1ncc(C2CCC2)cc1C1(C(=O)NS(=O)(=O)c2cccc3ccccc23)CC1",
    "Maximum % activity (with co-corrector)": "+++ (≥350)"
  },
  {
    "compoundStructure": "COc1ccc(C)nc1C1(C(=O)NS(=O)(=O)c2cccc3ncccc23)CC1",
    "Maximum % activity (with co-corrector)": "+++ (≥350)"
  }
]

Return the recorded Maximum % activity (with co-corrector) value; entry: CC(C)COc1cnc(C2CC2)c(C2(C(=O)NS(=O)(=O)c3cccc4ncccc34)CC2)c1
+++ (≥350)

Return the recorded Maximum % activity (with co-corrector) value; entry: COc1ccc(C2(C(=O)NS(=O)(=O)c3cccc4ccccc34)CCCC2)cc1OC
+ (<150)
